Field: pIC50. Provide a value for each of the molecules that follow.
test: Cytotoxicity, L929 fibroblasts; format: cell-based, mouse; conditions: mouse
Numbers only, as −log10 of the molar value.

Worked cases, pIC50 given:
| MOLECULE | pIC50 |
| --- | --- |
| NCCOCCOc1ccc(-c2cc(=O)c3ccccc3o2)cc1 | 4.38 |
| COc1c(C)cnc(CN(CCOCCOc2ccc(-c3cc(=O)c4ccccc4o3)cc2)Cc2ncc(C)c(OC)c2C)c1C [FM09i] | 5.64 |
| CS(=O)(=O)NCCOCCOc1ccc(-c2cc(=O)c3ccccc3o2)cc1 | 4.59 |
| O=c1cc(-c2ccc(OCCN3CCN(Cc4ccccn4)CC3)cc2)oc2ccccc12 [FM01a] | 4.22 |
| O=c1cc(-c2ccc(OCCOCCN(CCOCCO)Cc3ccncc3)cc2)oc2ccccc12 | 4.62 |
| O=c1cc(-c2ccc(OCCC3CCN(Cc4ccccn4)CC3)cc2)oc2ccccc12 [FM05a] | 4.23 |
| O=c1cc(-c2ccc(OCCOCCN(CCOCCOc3ccc(-c4cc(=O)c5ccccc5o4)cc3)Cc3ccncc3)cc2)oc2ccccc12 | 4.58 |
| O=C(COc1ccc(-c2cc(=O)c3ccccc3o2)cc1)N1CCCN(Cc2ccncc2)CC1 | 4.83 |
| COc1ccnc(CN2CCC(CCOc3ccc(-c4cc(=O)c5ccccc5o4)cc3)CC2)c1OC [FM05b] | 4.97 |
| COCCCOc1ccnc(CN(CCOCCOc2ccc(-c3cc(=O)c4ccccc4o3)cc2)Cc2nccc(OCCCOC)c2C)c1C [FM09k] | 5.33 |

Query string: Report measured pIC50; entry is O=c1cc(-c2ccc(OCCOCCNC(c3ccccn3)c3ccccn3)cc2)oc2ccccc12 [FM09p]
Result string: 5.68

Origin of the recorded values: patent US10111854B2
